Target: Receptor-type tyrosine-protein kinase FLT3 (Homo sapiens, UniProt P36888)
Sequence (P36888 whole entry): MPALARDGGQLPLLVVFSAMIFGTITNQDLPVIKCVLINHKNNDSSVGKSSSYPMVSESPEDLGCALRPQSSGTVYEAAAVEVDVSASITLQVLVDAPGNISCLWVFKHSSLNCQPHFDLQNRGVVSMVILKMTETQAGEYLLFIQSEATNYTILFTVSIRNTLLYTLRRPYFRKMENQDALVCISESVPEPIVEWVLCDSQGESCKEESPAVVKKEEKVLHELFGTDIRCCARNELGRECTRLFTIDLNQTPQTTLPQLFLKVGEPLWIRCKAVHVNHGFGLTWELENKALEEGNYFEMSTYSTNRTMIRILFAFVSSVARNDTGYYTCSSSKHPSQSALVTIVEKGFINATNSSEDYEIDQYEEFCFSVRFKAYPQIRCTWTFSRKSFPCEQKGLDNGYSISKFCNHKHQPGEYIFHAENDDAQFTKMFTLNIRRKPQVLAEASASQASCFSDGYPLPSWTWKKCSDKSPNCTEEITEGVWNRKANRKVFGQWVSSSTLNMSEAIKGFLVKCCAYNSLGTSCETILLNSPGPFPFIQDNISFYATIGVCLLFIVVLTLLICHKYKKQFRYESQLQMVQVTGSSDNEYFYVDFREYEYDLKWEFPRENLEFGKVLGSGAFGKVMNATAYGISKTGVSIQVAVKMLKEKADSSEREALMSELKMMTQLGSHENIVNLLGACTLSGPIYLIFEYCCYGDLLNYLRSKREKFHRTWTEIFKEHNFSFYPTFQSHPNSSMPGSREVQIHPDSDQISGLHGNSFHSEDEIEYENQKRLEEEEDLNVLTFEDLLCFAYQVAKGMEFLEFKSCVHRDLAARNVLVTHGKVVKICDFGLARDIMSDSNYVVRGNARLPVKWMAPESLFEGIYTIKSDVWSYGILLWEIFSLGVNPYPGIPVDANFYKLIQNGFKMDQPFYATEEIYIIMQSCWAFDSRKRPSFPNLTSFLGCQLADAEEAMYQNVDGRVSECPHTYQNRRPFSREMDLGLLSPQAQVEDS
pIC50: −log10 of the molar value.
attributeMeasured: pIC50

# compound, pIC50
data = [
    ("Cc1cc(Cl)cc2c1NC(=O)C2c1[nH]c2ccccc2c1N=O (configuration not stated)", "< 5.00"),
]

# next compound below
The recorded pIC50 for `O=C1N=c2ccc([N+](=O)[O-])cc2=C1c1[nH]c2ccccc2c1O` is < 5.00

Source: BindingDB's records for doi:10.1016/j.bmcl.2010.01.039
